Value source: PubChem BioAssay AID1745844

system: rodent lifetime carcinogenesis bioassay, tumor incidence TD50; assay: carcinogenic potency in animals, long-term in vivo studies, CPDB compilation (AID 1745844); conditions: mouse; strain Swiss albino; females; in drinking water; site: lung; lesion: one or several types; types not named; dosed 121 weeks; study length 123 weeks
Active and inactive are the calls of the source. The rule behind the calls is not given here.
PARAMETER: TD50

Dear colleague, please send me the reported TD50 for CN1CCC[C@H]1c1cccnc1 when you can.
11100 mg/kg/day (inactive)

====

test system: rodent lifetime carcinogenesis bioassay, tumor incidence TD50; test: carcinogenic potency in animals, long-term in vivo studies, CPDB compilation (AID 1745844); details: hamster; strain Syrian Golden; females; in feed; site: adrenal gland; lesion: cortical adenoma; dosed 104 weeks; study length 104 weeks
Calls of active or inactive are those of the source. How the calls were made is not given here.
PARAMETER: TD50

Dear colleague, please send me the reported TD50 for C[C@@H]1O[C@@H](OC[C@H]2O[C@@H](Oc3c(-c4ccc(O)c(O)c4)oc4cc(O)cc(O)c4c3=O)[C@H](O)[C@@H](O)[C@@H]2O)[C@H](O)[C@H](O)[C@H]1O when you can.
132000 mg/kg/day (inactive)

====

tested on: rodent lifetime carcinogenesis bioassay, tumor incidence TD50; experiment: carcinogenic potency in animals, long-term in vivo studies, CPDB compilation (AID 1745844); conditions: mouse; strain B6C3F1; males; by gavage; site: liver; lesion: hepatocellular adenoma + hepatocellular carcinoma + neoplastic nodule; dosed 105 weeks; study length 106 weeks
PARAMETER: TD50 (mg/kg/day)
Numbers only, in mg/kg/day.

Dear colleague, please send me the reported TD50 for ClC(Br)Br when you can.
20.7

====

test system: rodent lifetime carcinogenesis bioassay, tumor incidence TD50; assay: carcinogenic potency in animals, long-term in vivo studies, CPDB compilation (AID 1745844); details: rat; strain Buffalo; females; in feed; site: mammary gland; lesion: adenocarcinoma; dosed 86 weeks; study length 86 weeks
PARAMETER: TD50

Dear colleague, please send me the reported TD50 for CC(=O)Nc1ccc2c(c1)C(=O)c1ccccc1-2 when you can.
6.17 mg/kg/day

====

tested on: rodent lifetime carcinogenesis bioassay, tumor incidence TD50; test: carcinogenic potency in animals, long-term in vivo studies, CPDB compilation (AID 1745844); settings: mouse; strain Swiss albino; males; in drinking water; site: preputial gland; lesion: several types; types named in the paper; dosed 90 weeks; study length 90 weeks
PARAMETER: TD50

Dear colleague, please send me the reported TD50 for CCCCN(N)C=O when you can.
28.2 mg/kg/day

====

tested on: rodent lifetime carcinogenesis bioassay, tumor incidence TD50; experiment: carcinogenic potency in animals, long-term in vivo studies, CPDB compilation (AID 1745844); settings: rat; strain Fischer 344; males; in drinking water; site: spinal cord; lesion: astrocytoma; dosed 104 weeks; study length 104 weeks
PARAMETER: TD50

Dear colleague, please send me the reported TD50 for C=CC(N)=O when you can.
39.7 mg/kg/day

====

system: rodent lifetime carcinogenesis bioassay, tumor incidence TD50; assay: carcinogenic potency in animals, long-term in vivo studies, CPDB compilation (AID 1745844); conditions: rat; strain F344/DuCrj; males; in drinking water; site: thyroid follicle; lesion: papillary adenocarcinoma; dosed 99 weeks; study length 111 weeks
PARAMETER: TD50

Dear colleague, please send me the reported TD50 for CCN(N=O)C(N)=O when you can.
8.53 mg/kg/day
